Recorded Ki values (Protein Kinase C beta 2 (PKCβII) (Homo sapiens (Human))) are given below.
Measure: Ki (nM)

Compound	Ki / nM
Cc1ccc(F)c(Nc2n[nH]c3c2CN(C(=O)C2(F)CCN(C)CC2)C3(C)C)n1 [Example J1]	21.2
Cc1ncc(F)c(Nc2n[nH]c3c2CN(C(=O)N2CC(CCO)N(C)C[C@@H]2C)C3(C)C)n1 (single isomer, unassigned) [Example H10]	180
CCNc1ncc(F)c(Nc2n[nH]c3c2CN(C(=O)N2C[C@@H](C)N(C)C[C@@H]2C)C3(C)C)n1 [Example B3]	2.03

I. CNc1ncc(F)c(Nc2n[nH]c3c2CN(C(=O)N2CC(C)(C)N(C)C[C@@H]2C)C3(C)C)n1 [Example A6]
II. CCc1ncc(F)c(Nc2n[nH]c3c2CN(C(=O)N2CC(C)(C)N(C)C[C@@H]2C)C3(C)C)n1 [Example D1]
III. COCCCOc1ncc(F)c(Nc2n[nH]c3c2CN(C(=O)C2(F)CCN(C)CC2)C3(C)C)n1 [Example L3]
Your job: order these 3 records by Ki, ascending. The labels, placed in the requested order, form the answer. II, I, III
(II: 5.43 nM, I: 10.8 nM, III: 58.6 nM)

====

Assayed Target: Protein Kinase C beta 2 (PKCβII) (Homo sapiens (Human))
Sequence (P05771 other isoform, or with tags, fused parts or gaps): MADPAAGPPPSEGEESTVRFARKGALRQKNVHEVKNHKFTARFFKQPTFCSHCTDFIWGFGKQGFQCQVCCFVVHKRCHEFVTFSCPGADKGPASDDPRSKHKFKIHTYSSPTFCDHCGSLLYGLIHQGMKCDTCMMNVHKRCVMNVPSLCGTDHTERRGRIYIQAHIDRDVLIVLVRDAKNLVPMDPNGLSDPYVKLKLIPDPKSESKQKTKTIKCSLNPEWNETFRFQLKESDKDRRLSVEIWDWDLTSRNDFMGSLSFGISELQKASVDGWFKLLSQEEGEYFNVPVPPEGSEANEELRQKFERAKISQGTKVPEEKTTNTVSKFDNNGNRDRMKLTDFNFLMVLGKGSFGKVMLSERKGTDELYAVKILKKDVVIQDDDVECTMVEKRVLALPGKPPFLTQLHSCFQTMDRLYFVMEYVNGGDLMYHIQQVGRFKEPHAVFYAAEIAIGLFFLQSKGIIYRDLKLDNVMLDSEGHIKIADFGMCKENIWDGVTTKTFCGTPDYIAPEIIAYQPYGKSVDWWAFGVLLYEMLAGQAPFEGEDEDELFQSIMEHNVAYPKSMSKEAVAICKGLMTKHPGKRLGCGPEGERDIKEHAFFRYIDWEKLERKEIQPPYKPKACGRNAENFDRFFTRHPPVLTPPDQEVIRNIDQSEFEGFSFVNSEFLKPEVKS
pKi: −log10 of the molar value.
Measure: pKi

Compound	pKi
COCCOc1ncc(F)c(Nc2n[nH]c3c2CN(C(=O)C2(F)CCN(C)CC2)C3(C)C)n1 [Example L2]	6.77
CCOc1ncc(F)c(Nc2n[nH]c3c2CN(C(=O)N2CCN4CCC[C@@H]4C2)C3(C)C)n1 [Example K14]	7.14

I. CCc1ncc(F)c(Nc2n[nH]c3c2CN(C(=O)N2C[C@@H](C)N(CCC(F)(F)F)C[C@@H]2C)C3(C)C)n1 [Example E4]
II. CCOc1ncc(F)c(Nc2n[nH]c3c2CN(C(=O)C2CCN(CCC(F)(F)F)CC2)C3(C)C)n1 [Example L5]
// compare measured pKi, left I , right II , return larger Your answer should be the label of the entry you select. I
(I: 7.50, II: 6.89)

a. C[C@@H]1CN(C(=O)N2Cc3c(Nc4nc(OCC(F)(F)F)ncc4F)n[nH]c3C2(C)C)[C@@H](C)CN1C [Example K7]
b. CCOc1ncc(F)c(Nc2n[nH]c3c2CN(C(=O)N2C[C@@H](C)N(CCC(F)(F)F)C[C@@H]2C)C3(C)C)n1 [Example K18]
Choose between a and b : whose measured pKi value is numerically larger? Use the label to indicate which entry you chose. a

Data provenance: patent US9518060B2
